# TESTED_ON: Glucagon-like peptide 1 receptor (Homo sapiens)
# Sequence (P43220 whole entry): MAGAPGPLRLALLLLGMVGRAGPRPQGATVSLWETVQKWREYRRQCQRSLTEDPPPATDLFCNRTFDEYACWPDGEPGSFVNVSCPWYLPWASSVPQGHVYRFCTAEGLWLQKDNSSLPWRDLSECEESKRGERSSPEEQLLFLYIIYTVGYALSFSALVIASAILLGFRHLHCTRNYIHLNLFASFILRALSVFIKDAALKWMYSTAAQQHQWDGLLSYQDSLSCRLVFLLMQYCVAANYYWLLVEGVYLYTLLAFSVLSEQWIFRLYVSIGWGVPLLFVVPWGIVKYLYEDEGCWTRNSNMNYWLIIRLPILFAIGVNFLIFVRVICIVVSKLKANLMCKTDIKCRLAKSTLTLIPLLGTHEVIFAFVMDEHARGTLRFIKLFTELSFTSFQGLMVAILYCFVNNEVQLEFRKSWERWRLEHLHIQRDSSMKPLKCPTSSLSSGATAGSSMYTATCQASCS
# PROCEDURE_TEXT: Agonist activity at human GLP1 assessed as stimulation of cAMP
# Assay type: functional
Kindly state pEC50 for each of the entries shown.
Numbers only, as −log10 of the molar value.

Some compounds with recorded pEC50:
{"COMPOUND": "CS(=O)(=O)c1nc2cc(Cl)c(Cl)cc2nc1N1CCC(=O)N1", "TESTED_ON": "Glucagon-like peptide 1 receptor (Homo sapiens)", "ASSAY_METRIC": "pEC50", "VAL": 4.85}
{"COMPOUND": "CON(C)c1nc2cc(Cl)c(Cl)cc2nc1S(C)(=O)=O", "TESTED_ON": "Glucagon-like peptide 1 receptor (Homo sapiens)", "ASSAY_METRIC": "pEC50", "VAL": 5.59}

Here are 4 compounds. What values of pEC50 were reported for them?
1. CS(=O)(=O)c1nc2cc(Cl)c(Cl)cc2nc1C(F)(F)F
2. CC(C)Nc1nc2c([N+](=O)[O-])c(Cl)c(Cl)cc2nc1S(C)(=O)=O
3. CS(=O)(=O)c1nc2cc(Cl)c(Cl)cc2nc1N
4. CC(C)c1nc2cc(Cl)c(Cl)cc2nc1[S+](C)[O-] (stereo unspecified)

[5.59, 5.82, 5.20, 4.52]

Here are 4 compounds. What values of pEC50 were reported for them?
1. CC(C)c1nc2cc(Cl)c(Cl)cc2nc1S(=O)(=O)Cc1ccc(S(=O)(=O)CC2CC2)cc1
2. CCC(C)Nc1nc2cc(Cl)c([N+](=O)[O-])cc2nc1S(C)(=O)=O (stereo unspecified)
3. Cc1nnc([S+]([O-])c2nc3cc(Cl)c(Cl)cc3nc2C(C)C)s1 (stereo unspecified)
4. Cc1nnc(S(=O)(=O)c2nc3cc(Cl)c(Cl)cc3nc2C(C)C)s1

5.48
5.37
5.29
6.00

###

Kindly state Emax for each of the entries shown.
# TESTED_ON: Glucagon-like peptide 1 receptor (Homo sapiens)
# PROCEDURE_TEXT: Agonist activity at human GLP1 assessed as stimulation of cAMP relative to cAMP
# Format: functional

Some compounds with recorded Emax:
{"COMPOUND": "CCN(CC)C(=O)c1nc2cc(Cl)c(Cl)cc2nc1C(C)C", "TESTED_ON": "Glucagon-like peptide 1 receptor (Homo sapiens)", "Emax": "< 2%"}
{"COMPOUND": "CC(C)Nc1nc2cc(Cl)c([N+](=O)[O-])c(C(F)(F)F)c2nc1S(C)(=O)=O", "TESTED_ON": "Glucagon-like peptide 1 receptor (Homo sapiens)", "Emax": "31%"}
{"COMPOUND": "CC(C)c1nc2cc(Cl)c(Cl)cc2nc1[S+](C)[O-] (stereo unspecified)", "TESTED_ON": "Glucagon-like peptide 1 receptor (Homo sapiens)", "Emax": "29%"}
{"COMPOUND": "CCCc1nc2cc(C)c(C)cc2nc1S(C)(=O)=O", "TESTED_ON": "Glucagon-like peptide 1 receptor (Homo sapiens)", "Emax": "< 2%"}
{"COMPOUND": "CS(=O)(=O)c1nc2cc(Cl)c(Cl)cc2nc1NC1CCCc2ccccc21 (stereo unspecified)", "TESTED_ON": "Glucagon-like peptide 1 receptor (Homo sapiens)", "Emax": "69%"}
{"COMPOUND": "CC(C)(C)Nc1nc2c(Cl)cc(C(F)(F)F)cc2nc1S(C)(=O)=O", "TESTED_ON": "Glucagon-like peptide 1 receptor (Homo sapiens)", "Emax": "42%"}
{"COMPOUND": "CC(C)c1nc2cc(Cl)c(Cl)cc2nc1S(C)(=O)=O", "TESTED_ON": "Glucagon-like peptide 1 receptor (Homo sapiens)", "Emax": "35%"}
{"COMPOUND": "CC(C)c1nc2cc(Cl)c(Cl)cc2nc1S(=O)(=O)Cc1ccc(S(C)(=O)=O)cc1", "TESTED_ON": "Glucagon-like peptide 1 receptor (Homo sapiens)", "Emax": "63%"}

Here are 3 compounds. What values of Emax were reported for them?
1. CCC(C)Nc1nc2cc(Cl)c([N+](=O)[O-])cc2nc1S(C)(=O)=O (stereo unspecified)
2. Cc1nnc(S(=O)(=O)c2nc3cc(Cl)c(Cl)cc3nc2C(C)C)s1
3. CCOC(=O)c1nc2cc(Cl)c(Cl)cc2nc1S(C)(=O)=O

44%
47%
24%

###

Kindly state pEC50 for each of the entries shown.
# TESTED_ON: Glucagon-like peptide 1 receptor (Homo sapiens)
# PROCEDURE_TEXT: Agonist activity at human GLP1 assessed as stimulation of cAMP
# Type: functional
Answers are plain numbers, as −log10 of the molar value.

{"MOL_SMILES": "CC(C)c1nc2cc(Cl)c(Cl)cc2nc1S(C)(=O)=O", "pEC50": 5.30}

Here are 2 compounds. What values of pEC50 were reported for them?
1. CCNc1nc2cc(Cl)c(Cl)cc2nc1S(C)(=O)=O
2. CCCc1nc2cc(Cl)c(Cl)cc2nc1S(C)(=O)=O

1: 6.14; 2: 5.92
